From: patent US12673930B2

- ASSAY_TARGET: HSD17B13 enzyme (Homo sapiens, UniProt Q7Z5P4)
- Construct: His; made in house; host or cells: E. coli
- Sequence (Q7Z5P4 20-300): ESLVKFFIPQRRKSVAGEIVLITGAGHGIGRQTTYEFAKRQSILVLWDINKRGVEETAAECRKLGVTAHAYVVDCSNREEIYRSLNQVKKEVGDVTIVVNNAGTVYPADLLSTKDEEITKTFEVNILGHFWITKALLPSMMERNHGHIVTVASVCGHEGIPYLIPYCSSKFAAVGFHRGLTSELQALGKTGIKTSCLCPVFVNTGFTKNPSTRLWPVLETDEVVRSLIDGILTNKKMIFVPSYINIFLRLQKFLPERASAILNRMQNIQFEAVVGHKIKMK
- ASSAY_NOTES: NADH detection assay (fluorescence based Leukotriene B3 (LTB3) assay) for HSD17B13 activity
- Format: biochemical
- RUN_CONDITIONS: substrate 25 μM LTB3, 3 mM NAD+, 125 nM HSD17B13 enzyme, 1 hour at 26.5° C
PROPERTY_LABEL: IC50

Solved cases below.
>>> reported_value("O=C(Nc1ccsc1C(=O)NCc1c[nH]c2ccccc12)c1ccc(O)c(Cl)c1 [Example 4]")
"≤ 1 µM"
>>> reported_value("COc1ccccc1CNC(=O)c1sccc1NC(=O)c1ccc(O)c(Cl)c1 [Example 8]")
"≤ 1 µM"
>>> reported_value("CC(C)(C)CCNC(=O)c1sccc1NC(=O)c1ccc(O)c(Cl)c1 [Example 3]")
"≤ 1 µM"
>>> reported_value("COc1ccncc1CCNC(=O)c1sccc1NC(=O)c1ccc(O)c(Cl)c1 [Example 7]")
"≤ 1 µM"
>>> reported_value("COc1ccccc1CCNC(=O)c1sccc1NC(=O)c1ccc(O)c(C(F)(F)F)c1 [Example 33]")
"> 10 µM"
>>> reported_value("COc1ccccc1CCNC(=O)c1c(NC(=O)c2ccc(O)c(Cl)c2)sc2c1CCCC2 [Example 14]")
"1 to 5 µM"

Req: Record request: IC50 value, item CC(C)(C)CCNC(=O)c1sccc1NC(=O)c1cc(F)c(O)c(F)c1 [Example 18]
Resp: ≤ 1 µM

Req: Record request: IC50 value, item COc1ccccc1CCNC(=O)c1sccc1NC(=O)c1ccc(OC(F)(F)C(=O)O)c(Cl)c1 [Example 25]
Resp: > 10 µM

Req: Record request: IC50 value, item O=C(Nc1ccsc1C(=O)NC1COc2ccccc2C1)c1ccc(O)c(Cl)c1 (stereo not drawn) [Example 6]
Resp: ≤ 1 µM

Req: Record request: IC50 value, item CCNC(=O)c1sccc1NC(=O)c1ccc(O)c(Cl)c1 [Example 5]
Resp: ≤ 1 µM

Req: Record request: IC50 value, item COc1ccccc1CCNC(=O)c1sc2nccnc2c1NC(=O)c1ccc(O)c(Cl)c1 [Example 12]
Resp: 1 to 5 µM

====

Entries and their measured pIC50 follow.
- ASSAY_TARGET: HSD17B13 enzyme (Homo sapiens)
- Construct: His; made in house; host or cells: E. coli
- Sequence (Q7Z5P4 20-300): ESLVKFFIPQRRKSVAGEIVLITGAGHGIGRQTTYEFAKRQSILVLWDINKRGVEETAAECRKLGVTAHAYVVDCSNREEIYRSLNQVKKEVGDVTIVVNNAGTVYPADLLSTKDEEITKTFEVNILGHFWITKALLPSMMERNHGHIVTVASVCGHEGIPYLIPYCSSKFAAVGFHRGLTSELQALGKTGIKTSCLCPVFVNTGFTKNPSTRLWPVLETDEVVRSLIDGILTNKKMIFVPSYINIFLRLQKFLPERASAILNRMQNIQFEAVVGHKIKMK
- ASSAY_NOTES: NADH detection assay (fluorescence based Leukotriene B3 (LTB3) assay) for HSD17B13 activity
- Type: biochemical
- RUN_CONDITIONS: substrate 25 μM LTB3, 3 mM NAD+, 125 nM HSD17B13 enzyme, 1 hour at 26.5° C
pIC50: −log10 of the molar value.

>>> reported_value("COc1ccccc1CCNC(=O)c1sccc1NC(=O)c1ccc(C(F)(F)C(=O)O)c(F)c1 [Example 27]")
"< 5.00"
>>> reported_value("COc1ccccc1CCNC(=O)c1sccc1NC(=O)c1ccc(S(=O)(=O)NC(=O)c2ccccc2)c(Cl)c1 [Example 24]")
"< 5.00"
>>> reported_value("COc1ccccc1CCNC(=O)c1ccsc1NC(=O)c1ccc(O)c(Cl)c1 [Example 13]")
"≥ 6.00"
>>> reported_value("COc1ccccc1CCNC(=O)c1sccc1NC(=O)c1cc(Cl)c(O)c(C(C)C)c1 [Example 23]")
"< 5.00"
>>> reported_value("COc1ccccc1CCNC(=O)c1sccc1NC(=O)c1ccc2[nH]nc(Cl)c2c1 [Example 28]")
"< 5.00"
>>> reported_value("COc1ccccc1CCNC(=O)c1sc2ccccc2c1NC(=O)c1ccc(O)c(Cl)c1 [Example 31]")
"≥ 6.00"

Would you kindly look at the next entry?
Req: Record request: pIC50 value, item CC(C)CNC(=O)c1sccc1NC(=O)c1ccc(O)c(Cl)c1 [Example 2]
Resp: ≥ 6.00
